Target: recombinant human NK3 receptor (Homo sapiens)
Construct: expressed in transfected cells; host or cells: HEK293 cells (transient expression), membranes
Sequence (P29371 whole entry): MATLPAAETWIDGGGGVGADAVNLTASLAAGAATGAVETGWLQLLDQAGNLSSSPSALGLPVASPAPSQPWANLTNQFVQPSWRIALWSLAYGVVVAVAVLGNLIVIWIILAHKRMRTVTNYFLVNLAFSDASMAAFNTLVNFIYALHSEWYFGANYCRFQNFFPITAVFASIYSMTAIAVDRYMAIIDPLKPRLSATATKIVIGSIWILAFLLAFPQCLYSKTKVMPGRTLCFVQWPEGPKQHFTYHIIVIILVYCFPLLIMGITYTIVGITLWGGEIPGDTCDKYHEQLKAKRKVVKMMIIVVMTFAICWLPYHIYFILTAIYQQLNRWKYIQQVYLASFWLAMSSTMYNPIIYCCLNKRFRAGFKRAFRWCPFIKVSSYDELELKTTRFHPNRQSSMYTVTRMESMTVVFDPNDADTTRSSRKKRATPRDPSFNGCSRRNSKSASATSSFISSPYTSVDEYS
Experiment: [3H]SR142801 competition binding assay
Conditions: membranes from HEK293 cells transiently expressing hNK3; [3H]SR142801 at its KD; 75 min RT; read-out: Data [μM] (affinity constant Ki, hNK3 receptor binding)
measurement type: Ki
Value and unit, in that order.

Example results:
[
  {
    "compound": "C[C@H](Oc1ccc(Cl)cn1)[C@H]1CN(C(=O)C2CCN(C(=O)C3(C)CC3)CC2)C[C@@H]1c1ccc(Cl)cc1",
    "Ki": "0.001 µM"
  },
  {
    "compound": "C[C@H](Oc1ccc(C#N)cn1)[C@H]1CN(C(=O)C2CCN(C(=O)CC#N)CC2)C[C@@H]1c1ccc(Cl)c(Cl)c1 (racemic)",
    "Ki": "0.0075 µM"
  },
  {
    "compound": "CC(=O)N1CCC(C(=O)N2C[C@H]([C@H](C)Oc3ccc(Cl)cn3)[C@@H](c3ccc(Cl)c(Cl)c3)C2)CC1 (racemic)",
    "Ki": "0.0047 µM"
  },
  {
    "compound": "C[C@H](Oc1ccc(C#N)cn1)[C@H]1CN(C(=O)C2CCN(C(=O)C3CCC3)CC2)C[C@@H]1c1ccc(Cl)c(Cl)c1 (racemic)",
    "Ki": "0.0026 µM"
  },
  {
    "compound": "CC(=O)N1CCC(C(=O)N2C[C@H]([C@H](C)Oc3ccc(C(F)(F)F)cn3)[C@@H](c3ccc(Cl)c(Cl)c3)C2)CC1 (racemic)",
    "Ki": "0.0018 µM"
  }
]

Okay, next one:
Inquiry: Reported Ki for C[C@H](Oc1ccc(C#N)cn1)[C@H]1CN(C(=O)[C@H]2CC[C@H](N(C)C(=O)OC(C)(C)C)CC2)C[C@@H]1c1ccc(Cl)c(Cl)c1 (racemic) : what is it?
Reply text: 0.0028 µM
